- TEST_TARGET: T1, human epidermal growth factor receptor (HER2) (human (endogenous in SKOV3, BT474, …, UniProt P04626 23-1255))
- T1 construct: HER2, endogenous on the human cancer cell lines SKOV3, BT474 (high expression) and DU145 (low expression); source: endogenous, on living SKOV3, BT474 and DU145 cells
- PROTOCOL_DESCRIPTION: radioligand binding; LigandTracer, real time, living SKOV3 cells, room temperature; 0.5 and 2 nM radiolabeled G3 variant, then medium replaced for dissociation; fitted to a one-to-two Langmuir binding model (TraceDrawer); duplicates
- TEST_PARAMETERS: one partner purified
EXPERIMENTAL_READOUT: KD1 (high affinity interaction of the one-to-two fit) (pM)
# value in pM; strip the unit string

[99mTc]Tc(CO)3-(HE)3-G3 (DARPin G3 with a HEHEHE tag at the N-terminus) (designed binder, [99mTc]Tc(CO)3 on the histidine-containing tag (site-specific radiolabel), whole chain as printed; source: E. coli BL21(DE3), purified (HisTrap HP without imidazole in lysate and wash, MonoQ); not shown: (HE)3 (HEHEHE), N-terminal, kept) MRGSHEHEHEGSDLGKKLLEAARAGQDDEVRILMANGADVNAKDEYGLTPLYLATAHGHLEIVEVLLKNGADVNAVDAIGFTPLHLAAFIGHLEIAEVLLKHGADVNAQDKFGKTAFDISIGNGNEDLAEILQKLN :: 96
[99mTc]Tc(CO)3-H6-G3 (DARPin G3 with a hexahistidine tag at the N-terminus) (designed binder, [99mTc]Tc(CO)3 on the histidine-containing tag (site-specific radiolabel), whole chain as printed; source: E. coli BL21(DE3), purified (HisTrap HP, MonoQ); not shown: His6, N-terminal, kept) MRGSHHHHHHGSDLGKKLLEAARAGQDDEVRILMANGADVNAKDEYGLTPLYLATAHGHLEIVEVLLKNGADVNAVDAIGFTPLHLAAFIGHLEIAEVLLKHGADVNAQDKFGKTAFDISIGNGNEDLAEILQKLN :: 90
[99mTc]Tc(CO)3-G3-(HE)3 (DARPin G3 with a HEHEHE tag at the C-terminus) (designed binder, [99mTc]Tc(CO)3 on the histidine-containing tag (site-specific radiolabel), whole chain as printed (after removal of SUMO at QIGG/DLGKK); source: E. coli BL21(DE3), made as a His6-SUMO fusion, purified (HisTrap HP, cut with ULP1, HisTrap flow-through, MonoQ); not shown: (HE)3 (HEHEHE), C-terminal, kept) DLGKKLLEAARAGQDDEVRILMANGADVNAKDEYGLTPLYLATAHGHLEIVEVLLKNGADVNAVDAIGFTPLHLAAFIGHLEIAEVLLKHGADVNAQDKFGKTAFDISIGNGNEDLAEILQKLNGSHEHEHE :: 89

We next turn to a different binder, shown below.
State, in one line, measured KD1 (high affinity interaction of the one-to-two fit) of [99mTc]Tc(CO)3-G3-H6 (DARPin G3 with a hexahistidine tag at the C-terminus) (designed binder, [99mTc]Tc(CO)3 on the histidine-containing tag (site-specific radiolabel), whole chain as printed; source: E. coli BL21(DE3), purified (HisTrap HP, MonoQ); not shown: His6, C-terminal, kept) MDLGKKLLEAARAGQDDEVRILMANGADVNAKDEYGLTPLYLATAHGHLEIVEVLLKNGADVNAVDAIGFTPLHLAAFIGHLEIAEVLLKHGADVNAQDKFGKTAFDISIGNGNEDLAEILQKLNGSHHHHHH
118
